System: Serratia marcescens
Assay: MIC against Gram-negative bacteria: Serratia marcescens
Assay type: cell-based
Details: 10 h cultivation at 37° C., 5×10^5 CFU/mL, two-fold serial dilution
quantity measured: MIC S. marcescens (µg/mL)

{"substance": "PRT1167 (NINDCESNPCRNGGTCIDGVNSYKCICSDGWEGAYCE; listed as Homo sapiens)", "assayed target": "Serratia marcescens", "unit of measurement": "µg/mL", "value measured": 12.5}
{"substance": "PRT1108 (DLNECNSNPCQSNGECVELSSEKQYGRITGLPSSFSYHEASGYVCICQPGFTGIHCE; listed as Homo sapiens)", "assayed target": "Serratia marcescens", "unit of measurement": "µg/mL", "value measured": 12.5}
{"substance": "PRT1173 (KCIPHPGCVHGICNEPWQCLCETNWGGQLCD; listed as Homo sapiens)", "assayed target": "Serratia marcescens", "unit of measurement": "µg/mL", "value measured": 50}
{"substance": "PRT1071 (ELDQCWEHCRNGGTCAASPSGMPTCRCPTGFTGPKCT; listed as Homo sapiens)", "assayed target": "Serratia marcescens", "unit of measurement": "µg/mL", "value measured": 12.5}
{"substance": "PRT1187 (NTNDCNPLPCYNGGICVDGVNWFRCECAPGFAGPDCR; listed as Homo sapiens)", "assayed target": "Serratia marcescens", "unit of measurement": "µg/mL", "value measured": 12.5}
{"substance": "PRT1123 (QLTGCQGHTCPLAATCIPIFESGVHSYVCHCPPGTHGPFCG; listed as Homo sapiens)", "assayed target": "Serratia marcescens", "unit of measurement": "µg/mL", "value measured": 12.5}
{"substance": "PRT1070 (RPGTCNLQCFNGGSCFLNARRQPKCRCQPRYTGDKCE; listed as Homo sapiens)", "assayed target": "Serratia marcescens", "unit of measurement": "µg/mL", "value measured": 12.5}
{"substance": "PRT1145 (KINDCTSIPCMNEGFCQKSAHGFTCICPRGYTGAYCE; listed as Homo sapiens)", "assayed target": "Serratia marcescens", "unit of measurement": "µg/mL", "value measured": 12.5}
{"substance": "PRT1184 (NPNDCLPDPCHSRGRCYDLVNDFYCACDDGWKGKTCH; listed as Homo sapiens)", "assayed target": "Serratia marcescens", "unit of measurement": "µg/mL", "value measured": 25}
{"substance": "PRT1080 (IQSYCAKHLKCSQKCDQNKFSVKCSCYEGWVLEPDGESCR; listed as Homo sapiens)", "assayed target": "Serratia marcescens", "unit of measurement": "µg/mL", "value measured": 50}
{"substance": "PRT1154 (DGTACGYNTCRNGGECTVNGTTFSCRCLPDWAGNTCN; listed as Homo sapiens)", "assayed target": "Serratia marcescens", "unit of measurement": "µg/mL", "value measured": 12.5}
{"substance": "PRT1095 (EVQWCGFSPCPHGAQCQPVLQGFECIANAVFNGQSGQ; listed as Homo sapiens)", "assayed target": "Serratia marcescens", "unit of measurement": "µg/mL", "value measured": 50}
{"substance": "PRT1109 (EPRGCATQPCHHGALCVPQGPDPTGFRCYCVPGFQGPRCE; listed as Homo sapiens)", "assayed target": "Serratia marcescens", "unit of measurement": "µg/mL", "value measured": 12.5}
{"substance": "PRT1076 (SCLTCVGHCSNGGSCTMNSKMMPECQCPPHMTGPRCE; listed as Homo sapiens)", "assayed target": "Serratia marcescens", "unit of measurement": "µg/mL", "value measured": 25}
{"substance": "PRT1160 (DTEDCKSASCKNGTTSTHLRGYFFRKCVPGFKGTQCE; listed as Homo sapiens)", "assayed target": "Serratia marcescens", "unit of measurement": "µg/mL", "value measured": 25}
{"substance": "PRT1078 (GTNKCRVNNGGCSSLCLATPGSRQCACAEDQVLDADGVTCL; listed as Homo sapiens)", "assayed target": "Serratia marcescens", "unit of measurement": "µg/mL", "value measured": 12.5}

These data points were gathered from patent US9833497B2.
